target: cynomolgus monkey IL-17A (cynomolgus monkey, UniProt A0A2K5TTB0 24-155); experiment: cell-based or functional assay
Sequence (A0A2K5TTB0 entry or part of it): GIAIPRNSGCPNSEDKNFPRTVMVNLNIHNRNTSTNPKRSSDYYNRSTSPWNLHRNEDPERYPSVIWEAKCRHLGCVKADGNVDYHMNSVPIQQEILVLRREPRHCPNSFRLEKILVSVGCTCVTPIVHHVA
Quick list: Potency (pM), IL-17-driven IL-6 production in HS27 cells per entry.
observedProperty: Potency (pM), IL-17-driven IL-6 production in HS27 cells

| binder | numericResult |
| --- | --- |
| IL17-h5C5.14 (antibody, V domains shown, IgG; constant regions not specified; also called h5C5.14 (VH.1-Vk.3a)) VH: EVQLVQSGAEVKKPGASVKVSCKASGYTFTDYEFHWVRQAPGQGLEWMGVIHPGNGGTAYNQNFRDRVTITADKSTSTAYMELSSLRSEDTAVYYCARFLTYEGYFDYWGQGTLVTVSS VL: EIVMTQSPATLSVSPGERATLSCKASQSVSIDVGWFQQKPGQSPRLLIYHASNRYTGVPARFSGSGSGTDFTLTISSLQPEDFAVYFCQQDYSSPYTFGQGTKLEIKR | 16 |
| IL17-h5C5.8 (antibody, V domains shown, IgG; constant regions not specified; also called h5C5.8 (VH.1-Vk.1a)) VH: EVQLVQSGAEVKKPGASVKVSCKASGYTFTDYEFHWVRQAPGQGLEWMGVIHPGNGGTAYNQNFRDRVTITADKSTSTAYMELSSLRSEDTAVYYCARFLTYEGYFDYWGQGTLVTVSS VL: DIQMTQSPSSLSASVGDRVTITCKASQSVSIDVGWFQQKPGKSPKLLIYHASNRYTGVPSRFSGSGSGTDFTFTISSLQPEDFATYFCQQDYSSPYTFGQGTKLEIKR | 20 |
